study.system: methionyl-tRNA synthetase (Trypanosoma brucei brucei)
measurement.protocol: inhibition of trypanosomal methionyl-tRNA synthetase – biochemical, fluorescence polarization, dose response, round 2, orthogonal assay for T. brucei MetRS inhibitor project, late-stage follow-up (AID 743299)
measurement.parameters: recombinant T. brucei MetRS
measured.parameter: pIC50
// field semantics: pIC50 = negative decimal log of concentration (mol/L)

Lookup: Dear colleague, I am looking for the recorded pIC50 of the following molecule: CCN(CC)C(=O)C(=O)c1cn(CC(=O)Nc2cccc(C(F)(F)F)c2)c2ccccc12
Found: 6.74
